All values here come from PubChem BioAssay (NCI).

ASSAY_EXPLANATION: NCI Yeast Anticancer Drug Screen. Data for the wt1 strain (AID 149);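 note: 0% = growth of vehicle-treated wt1 cultures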
PARTICULARS: S. cerevisiae wt1 strain (SPY 50644) growth inhibition; at 1.2 µM; stronger effect = higher value
Experimental: Growth inhibition of yeast strains with defined genetic alterations is measured as a screen for potential anti-cancer activity. Selected strains with alterations in DNA damage repair or cell cycle control were exposed to compounds and growth inhibition was measured relative to vehicle treated controls. The strain used in this assay is wt1
About 79,000 compounds went through this panel and 15% of them were active in at least one assay; those are over-represented in the sample as a whole.
The following compounds are shown together with reported growth inhibition values.
Kindly answer with a numeric value in %, unit omitted.

Some solved cases for reference:
N#C/C(=C/N1C(=O)/C(=C/c2ccc([N+](=O)[O-])cc2)SC1=S)c1nc2ccccc2s1 ... 4
Cc1ccc(N=Nc2ccc(O)c(C)c2)cc1 ... 5
O=c1ccc(N=Nc2ccccc2)ccc1O ... 16
O=C(NCCCCCN1CCC2(CCCCC2)CC1)C(C1CCCCC1)C1CCCCC1 ... -63
Oc1ccccc1N=Cc1ccc(Cl)cc1 ... 14

Ask: Requested field: growth inhibition. Item: COc1cc2c(cc1C[N+](C)(C)CSc1ccccc1)-c1ccccc1CC2
Result: -17

Ask: Recorded growth inhibition for Cc1onc(-c2ccccc2Cl)c1C1=N/C(=C/c2cc(Cl)cc(Cl)c2O)C(=O)O1 , please?
Result: -3

Ask: growth inhibition lookup needed for C/C(=N\NC(=S)NNC(=S)N(C)c1ccccc1)c1ccccn1 , thanks.
Result: -4

Ask: Entry Cc1cc(Cl)nc2nc(Cl)c(N)cc12 has what growth inhibition?
Result: -16

Ask: Field request: growth inhibition | item: COC(=O)c1ccc2c(c1)Cc1ccccc1-2
Result: -3

Ask: What measured growth inhibition goes with O=C(/C=C\c1ccc([N+](=O)[O-])o1)Nc1ccc(Cl)cc1 ?
Result: 6

Ask: What value of growth inhibition has been recorded for this entry: CC(=O)C1(O)Cc2c(O)c3c(c(O)c2C(OC2CC(N)C(O)C(C)O2)C1)C(=O)c1ccccc1C3=O (centres undefined)
Result: 25

Ask: Need growth inhibition, item Nc1cc(S(N)(=O)=O)ccc1SSc1ccc(S(N)(=O)=O)cc1N
Result: 1

Ask: Entry CC1OC(OC2CCCc3c(O)c4c(c(O)c32)C(=O)c2ccccc2C4=O)CC(N)C1O (centres undefined) : reported growth inhibition = ?
Result: 1

---

ASSAY_EXPLANATION: NCI Yeast Anticancer Drug Screen. Data for the rad14 strain (AID 159);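 note: 0% = growth of vehicle-treated control cultures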
PARTICULARS: S. cerevisiae rad14 strain growth inhibition; at 33.0 µM; stronger effect = higher value
About 79,000 compounds went through this panel and 15% of them were active in at least one assay; those are over-represented in the sample as a whole.
Mark y for reported growth inhibition of 40% or greater; mark n for anything smaller.

Nc1cc(S(N)(=O)=O)ccc1SSc1ccc(S(N)(=O)=O)cc1N ... n
Cc1ccc(Nc2n[nH]c(=S)s2)cc1 ... y
CN(N=O)C(=O)N[C@@H](C=O)[C@@H](O)[C@H](O)[C@H](O)CO ... n
CSc1s[s+]c(SC)c1-c1ccccc1 ... n
C=C(C)[C@@H]1CCc2c(O)c(O)c(=O)cc(C)c2C1 ... y

Ask: Exam item: decide whether the reported growth inhibition for O=C1c2cccc3cc([N+](=O)[O-])cc(c23)C(=O)N1CCN1CCCC1 is at least 40%.
Result: n

Ask: Form field: growth inhibition at least 40%? Entry: S=c1cn[nH]c2ccc(Br)cc12
Result: n

Ask: Item Cc1nc2c(ncn2CCO)c(=O)[nH]1 with growth inhibition of 40% or above?
Result: n

Ask: Is growth inhibition for Cc1cccc(/C=N/NC(=S)N(C)CCc2ccccn2)n1 at or above 40%?
Result: y

Ask: Quick check: does O=C1C(Cl)=C(Cl)C(Cl)(Cl)C(Cl)C1(Cl)Cl (configuration not stated) have growth inhibition greater than or equal to 40%?
Result: y
